Reference for the values: patent EP0201999A1

system: VENTURIA INAEQUALIS; test: Foliar fungal disease test on plants (Example 29), Venturia inaequalis on apples; assay type: in vivo; conditions: 100 ppm a.i. foliar spray plus root drench approx. 40 ppm ai./dry soil, mostly protectant, applied 1-2 days before inoculation
measuredParameter: Disease control VENTURIA INAEQUALIS (APPLES)

{"compound": "CCON=C(C#N)C(=O)NCC#N [Compound 22]", "endpointValue": 4}

---

Test system: […]
Assay: Root drench test against Plasmopara viticola on vines (Example 30)
Assay type: in vivo
Conditions: vines (variety ohanez), 25 ppm, approx. 10 ppm compound/dry soil, inoculated after 2 days, assessed six days later
Description: This Example illustrates the activity of the invention compounds against the disease Plasmopara viticola on vines. For the test on Plasmopara viticola the vine plants (variety ohanez) were grown in John Innes Potting Compost (No. 1 or 2) in 4 cm diameter minipots. The test compounds were formulated either by bead milling with aqueous Dispersol T or as a solution in acetone or acetone/ ethanol which was diluted to a concentration of 25 ppm of the compound immediately before use. […]
# Lookup of reported Disease control […] (VINES) keyed by entry

{"testSmiles": "CON=C(C#N)C(=O)NCC(N)=S", "Disease control […] (VINES)": 4}
{"testSmiles": "C#CCNC(=O)C(C#N)=NOC", "Disease control […] (VINES)": 4}
